Study the reported pKi values for 5-hydroxytryptamine receptor 1A (Homo sapiens) given below; they originate from different publications.
Answer as the number alone; pKi is minus log10 of concentration in mol/L.

Inquiry: Name the reported pKi value associated with the compound Cc1ccc2c(OCCN3CCC(Cc4cccc(N5CCN[C@@H](C)C5)c4)CC3)cccc2n1
Reply text: 8.40

Inquiry: Can you handle Cc1ccc2c(OCCN3CCC(Cc4cccc(N5C[C@@H](C)NC[C@@H]5C)c4)CC3)cccc2n1 next?
Reply text: 8.30

Inquiry: Please answer likewise for COc1cc2ncnc(N3CCC(CN4CCN(c5cccc(C(F)(F)F)c5)CC4)C3)c2cc1OC (configuration not stated)
Reply text: 7.68

Inquiry: Queued: COc1cc(CNCCC2=CCCCC2)ccc1OCc1ccccc1
Reply text: 5.31

Inquiry: Input O=S(=O)(c1cncc2ccccc12)N1CCC(CCN2CCN(c3cccc(Cl)c3Cl)CC2)CC1
Reply text: 7.54

* * *

Across several publications, the following log10(Ki) results were reported for 5-hydroxytryptamine receptor 1A (Homo sapiens).
Give log10 of Ki, with Ki taken in nM.

Recorded results for 3 molecules are shown here.
Molecule: O=C1CC2(CCCC2)CC(=O)N1CCN1CCN(c2cccc(Cl)c2Cl)CC1
Assay result: 0.53
--
Molecule: Cc1cc2c(N3CCN(CCc4ccc5c(c4)NC(=O)CO5)CC3)cccc2[nH]1
Assay result: 0.50
--
Molecule: O=C(NCCN1CCN(c2cccc3nc(O)oc23)CC1)c1ccc(F)cc1
Assay result: 0.90

Inquiry: Returns the measured log10(Ki) for the input molecule. Input: CN1CCN2c3c(cccc31)[C@@H]1CN(CCCc3noc4cc(F)ccc34)CC[C@@H]12
Reply text: 2.56

Inquiry: Also check O=C1COc2ccc(CCN3CCN(c4cccc5cccnc45)CC3)cc2N1
Reply text: 0.20

Inquiry: Cool, now COc1ccccc1N1CCN(CCC(=O)c2ccc(-c3ccccc3)cc2)CC1
Reply text: 3.56

* * *

Please find below pKi data on UniProt:P08908 compiled from the literature.
Scale note: pKi = -log10(concentration in M).

Molecule: OC(CNCC1COc2ccccc2O1)COCc1ccccc1Cl (stereo not given)
Measured on: UniProt:P08908
pKi: 7.44
--
Molecule: CC1(C)NC(=O)N(CC(O)CN2CCN(C(c3ccccc3)c3ccccc3)CC2)C1=O (stereo not given)
Measured on: UniProt:P08908
pKi: 4.82
--
Molecule: CC(C)CN(CCCc1c[nH]c2ccc(F)cc12)C1COc2ccc3c(c2C1)C(=O)NCC3 (racemic)
Measured on: UniProt:P08908
pKi: 6.03
--
Molecule: COc1cccc(N2CCN(CCCCCOc3ccccc3C(N)=O)CC2)c1
Measured on: UniProt:P08908
pKi: 8.40
--
Molecule: O=C(NC/C=C/CN1CCN(c2cccc(Cl)c2Cl)CC1)c1ccc(-c2cccc(=O)[nH]2)cc1
Measured on: UniProt:P08908
pKi: 7.53
--
Molecule: COc1ccccc1N1CCN(CCCCN2C(=O)C[C@@H](NC(=O)C3CCCCC3)C2=O)CC1
Measured on: UniProt:P08908
pKi: 7.77

Inquiry: What reported pKi corresponds to COc1cccc(N2CCN(CCCCCn3c(=O)oc4ccccc4c3=O)CC2)c1 on UniProt:P08908?
Reply text: 7.70

Inquiry: Another: COc1cc2ncnc(N3CCC(CN4CCN(c5ncccn5)CC4)C3)c2cc1OC (stereo not given)
Reply text: 6.60

Inquiry: Now consider Cc1ccccc1OCCN1CCC(NS(=O)(=O)c2ccc(F)cc2)CC1 and answer again.
Reply text: 6.13

Inquiry: Item: Cc1cc(C)c2cc([C@@H]3CCN(C[C@H](O)COc4cccc5[nH]c(C)cc45)[C@@H](C)C3)sc2c1
Reply text: 6.98

Inquiry: Also check COc1ccccc1N1CCN(CCCCNS(=O)(=O)c2ccc3ccccc3c2)CC1
Reply text: 8.39

Inquiry: Next up: Oc1ccccc1N1CCN(CCC(O)c2csc3ccccc23)CC1 (stereo not given)
Reply text: 7.74

Inquiry: Moving on to O=C1c2cccc3cccc(c23)N1CCCCCCN1CCN(c2ccc(Cl)cc2)CC1
Reply text: 6.74

Inquiry: Let us now turn to OC(CCN1CCN(c2ccccc2Cl)CC1)c1ccsc1 (stereo not given)
Reply text: 6.70

Inquiry: Subsequent entry: N#Cc1ccc(CNC(=O)CCOCCN2CCN(c3ncccc3-c3ccc(F)cc3)CC2)cc1
Reply text: 5.58

Inquiry: Subsequent entry: Cc1cc(OCCCCN2CCN(c3ccc(Cl)cc3)CC2)c2c(C)cc(=O)oc2c1
Reply text: 7.22

Inquiry: Another: COc1ccc(Br)c(CC2CCN(CCc3cccc4ccccc34)CC2)c1
Reply text: 8.32

Inquiry: # repeat for O=C(CCN[C@H]1CCN(c2ccc([N+](=O)[O-])cc2C(F)(F)F)C1)c1csc2ccccc12
Reply text: 7.30

* * *

Listing of pKi toward 5-hydroxytryptamine receptor 1A (Homo sapiens, UniProt P08908), each taken from a published source.
Friendly reminder that pKi comes from taking -log10 of the concentration in mol/L.

Use the examples below as a reference point.
Compound: Cc1sc2nc(CCCCN3CCN(c4ccccc4)CC3)[nH]c(=O)c2c1C
Assay result: 7.43
--
Compound: Cn1cc(S(=O)(=O)NC2CCN(CCOc3ccccc3-c3ccccc3)CC2)cn1
Assay result: 6.49
--
Compound: Cn1c(=O)c2c(nc3n2CCCC(=O)N3CCCN2CCN(c3ncccn3)CC2)n(C)c1=O
Assay result: 6.32
--
Compound: COc1cccc(CCc2ccccc2OCCCCN2CCN(c3ncccn3)CC2)c1
Assay result: 6.25
--
Compound: CC(C)c1ccccc1OCCN1CC2CC1CN2S(=O)(=O)c1cccc(Cl)c1 (stereo unspecified)
Assay result: 6.41

Inquiry: Request - read-out pKi | tested on 5-hydroxytryptamine receptor 1A (Homo sapiens, UniProt P08908) | compound Fc1ccc2c(C3CCN(CCCOc4ccc(CN5CCCCC5)c(F)c4)CC3)noc2c1
Reply text: 7.04

Inquiry: Also need NC(=O)[C@@H]1Cc2ccccc2CN1C(=O)CCCCN1CCN(c2ccccc2-c2ccccc2)CC1 , thanks.
Reply text: 7.18

Inquiry: Same lookup for CCC(Oc1cc(F)ccc1F)c1nc(N)nc(N2CCN(C)CC2)n1 (stereo unspecified) , please.
Reply text: 5.52

Inquiry: Note, next up: CC(C)c1ccccc1OCCN1CCC(NS(=O)(=O)c2cccc3ncccc23)CC1
Reply text: 6.63

* * *

Recorded log10 Ki for compounds tested on 5-hydroxytryptamine receptor 1A (Homo sapiens), drawn from a number of studies.
Sequence (P08908 whole entry): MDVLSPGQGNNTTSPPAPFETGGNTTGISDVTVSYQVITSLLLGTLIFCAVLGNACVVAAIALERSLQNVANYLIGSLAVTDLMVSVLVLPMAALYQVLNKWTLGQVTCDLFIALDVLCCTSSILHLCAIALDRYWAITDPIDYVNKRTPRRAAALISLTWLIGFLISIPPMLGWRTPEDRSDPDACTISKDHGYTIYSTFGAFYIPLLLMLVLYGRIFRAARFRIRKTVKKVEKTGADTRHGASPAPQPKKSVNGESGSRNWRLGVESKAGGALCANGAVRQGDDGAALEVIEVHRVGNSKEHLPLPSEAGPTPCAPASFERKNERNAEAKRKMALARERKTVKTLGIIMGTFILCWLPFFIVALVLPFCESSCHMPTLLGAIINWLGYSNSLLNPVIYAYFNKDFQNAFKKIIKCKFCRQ
Each number you see is log10 of Ki, and the unit inside the log is nM.

Please review the entries below; each comes with its answer.
Compound: C[C@H]1CN(c2cccc3cc(F)ccc23)CCN1CC[C@@H]1OCc2cc(C(N)=O)ccc21
Measured on: 5-hydroxytryptamine receptor 1A (Homo sapiens)
Value type: log10 Ki
Assay result: 1.11
--
Compound: COc1ccccc1-c1cc(CN(C)C)ccc1Cl
Measured on: 5-hydroxytryptamine receptor 1A (Homo sapiens)
Value type: log10 Ki
Assay result: 3.32
--
Compound: COc1ccccc1N1CCN(CCCCc2cn(-c3ccc(N(C)C)cc3)nn2)CC1
Measured on: 5-hydroxytryptamine receptor 1A (Homo sapiens)
Value type: log10 Ki
Assay result: 0.97
--
Compound: O=c1[nH]c2cccc(N3CCN(Cc4ccnc(-c5ccc(F)cc5)c4)CC3)c2o1
Measured on: 5-hydroxytryptamine receptor 1A (Homo sapiens)
Value type: log10 Ki
Assay result: 1.32
--
Compound: Fc1cccc(Oc2c(Cl)cccc2Cl)c1OC1CNC1
Measured on: 5-hydroxytryptamine receptor 1A (Homo sapiens)
Value type: log10 Ki
Assay result: 0.78

Inquiry: Any idea what its log10 Ki is? The compound is Fc1ccc2c(C3CCN(CCCOc4ccc(CN5CCOCC5)cc4)CC3)noc2c1
Reply text: 1.93

Inquiry: Thanks! And COc1ccc(NC(=O)N2CCN(c3ccc(C)cc3C)CC2)cc1N1CCN(C)CC1 ?
Reply text: 2.76

Inquiry: What do you have for N#Cc1ccc2[nH]cc([C@H]3CC[C@@H](N4CCN(c5cccc6ncccc56)CC4)CC3)c2c1 ?
Reply text: 1.76

Inquiry: Would you kindly repeat that for COc1ccccc1N1CCN(CCCCN2C(=O)C[C@@H](NC(=O)CC3CC4CCC3C4)C2=O)CC1 (stereo in doubt; 9'{5,5}) ?
Reply text: 1.23

* * *

Here we gather pKi data for 5-hydroxytryptamine receptor 1A (Homo sapiens) reported by several publications.
As a rule, pKi stands for the negative log10 of the concentration, concentration in M.

Structure as smiles: Cn1c(=O)c2c(nc3n2CCCN3CCCN2CCN(c3ccccc3)CC2)n(C)c1=O
pKi: 7.80
//
Structure as smiles: Cc1ccc2[nH]cc(CCNCc3ccc(-c4ccc(O)cc4)o3)c2c1
pKi: 6.40
//
Structure as smiles: O=S(=O)(c1cccc2ncccc12)N1CCC(CCN2CCN(c3ccc(Cl)cc3)CC2)CC1
pKi: 6.13
//
Structure as smiles: NC(=O)[C@@H]1Cc2ccccc2CN1C(=O)CCCCN1CCN(c2noc3ccccc23)CC1
pKi: 6.42

Consider the record given below.
Inquiry: Returns the measured pKi for the input compound. Input: COc1ccccc1N1CCN(CCCCNC(=O)c2ccc(-c3cccc([18F])n3)cc2)CC1
Reply text: 7.80
